B1: library; numbered along this chain (parent)
chain: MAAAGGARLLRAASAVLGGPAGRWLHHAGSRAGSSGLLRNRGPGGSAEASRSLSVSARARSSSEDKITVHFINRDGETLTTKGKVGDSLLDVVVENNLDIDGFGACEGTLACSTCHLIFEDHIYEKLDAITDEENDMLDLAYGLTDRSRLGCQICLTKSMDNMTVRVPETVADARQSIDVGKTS

Variants of: B1
measurement_protocol: scaled log2 fold change in cell abundance, elesclomol vs control (0 = silent mean, 1 = nonsense mean) (scaled log2 ratio); higher = higher viability under elesclomol (loss of FDX1 cuproptosis function);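 further: variant abundance is its share of total variant reads in each endpoint sample, from next-generation sequencing of the integrated ORF PCR-amplified out of genomic DNA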
particulars: with HEK293T FDX1 KO; elesclomol 40 nM; glucose 10 mM; 11 days
readout: scaled log2 fold change

variant_name: L127Q
readout: scaled log2 fold change
reported: 0.00947
--
variant_name: E125W
readout: scaled log2 fold change
reported: -0.135
--
variant_name: F119K
readout: scaled log2 fold change
reported: 1.21
--
variant_name: L110I
readout: scaled log2 fold change
reported: -0.421
--
variant_name: M137Q
readout: scaled log2 fold change
reported: -0.244
--
variant_name: D65K
readout: scaled log2 fold change
reported: -0.531
--
variant_name: D146L
readout: scaled log2 fold change
reported: -0.302
--
variant_name: R175I
readout: scaled log2 fold change
reported: 0.157
--
variant_name: V85D
readout: scaled log2 fold change
reported: -0.189
--
variant_name: L53G
readout: scaled log2 fold change
reported: -1.17
--
variant_name: G86C
readout: scaled log2 fold change
reported: 1.4
--
variant_name: S34E
readout: scaled log2 fold change
reported: -0.639
--
variant_name: D121Y
readout: scaled log2 fold change
reported: 0.698
--
variant_name: P168D
readout: scaled log2 fold change
reported: 1.03
--
variant_name: H70S
readout: scaled log2 fold change
reported: -0.697
--
variant_name: G83F
readout: scaled log2 fold change
reported: 0.231
--
variant_name: I178F
readout: scaled log2 fold change
reported: 0.801
--
variant_name: V69I
readout: scaled log2 fold change
reported: -0.536
--
variant_name: V167I
readout: scaled log2 fold change
reported: 0.138
--
variant_name: L98Y
readout: scaled log2 fold change
reported: -0.257
--
variant_name: S34W
readout: scaled log2 fold change
reported: 0.853
--
variant_name: D101Y
readout: scaled log2 fold change
reported: 1.05
--
variant_name: T68Q
readout: scaled log2 fold change
reported: -0.103
--
variant_name: G33I
readout: scaled log2 fold change
reported: 0.713
--
variant_name: R74F
readout: scaled log2 fold change
reported: -0.0248
--
variant_name: N97K
readout: scaled log2 fold change
reported: 0.739
--
variant_name: D65W
readout: scaled log2 fold change
reported: 0.126
--
variant_name: R23W
readout: scaled log2 fold change
reported: 0.553
--
variant_name: L98V
readout: scaled log2 fold change
reported: -0.662
--
variant_name: A3W
readout: scaled log2 fold change
reported: 0.562

Source of measurements: the supplement of paper PMC12855868
